Quick reference for Papp A→B at 25 µM among some compounds
# run.description: in vitro
# cond: human, Caco-2, pH 7.4
# Description: Permeability from apical to basolateral side of the Caco-2 cell membrane at 25 uM in pH 7.4
readout.name: Papp A→B at 25 µM (×10⁻⁶ cm/s)

{"columns": ["compound", "readout.name", "unit.of.measure", "observed.measurement"],
 "data": [
  ["C[C@H](Cc1cccc(CC(=O)NC2Cc3ccccc3C2)c1)NC[C@H](O)c1ccc(O)c(CO)c1", "Papp A→B at 25 µM", "×10⁻⁶ cm/s", 1],
  ["C[C@H](Cc1cccc(CC(=O)NCc2cc(Cl)cc(Cl)c2)c1)NC[C@H](O)c1ccc(O)c(CO)c1", "Papp A→B at 25 µM", "×10⁻⁶ cm/s", 1],
  ["C[C@H](Cc1cccc(CC(=O)NCc2ccc(Cl)c(Cl)c2)c1)NC[C@H](O)c1ccc(O)c(CO)c1", "Papp A→B at 25 µM", "×10⁻⁶ cm/s", 1]
]}

These measurements were taken from ChEMBL document CHEMBL1145365.
